# Lookup of reported apparent KD of K4 kissing-loop reporter keyed by entry
test system: K4 kissing-loop RNA reporter; experiment: apparent KD of K4 kissing-loop reporter; higher = weaker reporter binding; conditions: Eterna round: R107; input ligand: theophylline 20 uM
# output: bare number, implied unit nM

These solved cases illustrate the format of a correct answer.
| Sequence Chain | System | apparent KD of K4 kissing-loop reporter, nM |
| --- | --- | --- |
| CGCAGGAUGGAAGGAUAUGGGAGUUGACGUCGCCGAGCUAACCUUCUGCACGGAGUGAUGUUUAGACCAGAAGGUCCUCGGAGCA [theeternabot_exclusion_KL_FMN_B_17] | K4 kissing-loop RNA reporter | 1150 |
| GGGUCUGUCGGAAGGAGCGCGCUAUGGAGUGAUGUUCCAUGACCGUACAGCUUACGGUCAGCGCAGGUAGGUCGCCGAUAGCGUU [Geordiar] | K4 kissing-loop RNA reporter | 151 |

What does the data say about its apparent KD of K4 kissing-loop reporter? Entry: UGAGGGAUCUCGGCCGCCACUCGUGGGAAAUGGGCCUCAGGGAUAUAGUGAUGUUAUGUAAAGAAGAGGACCGGGAGAAGGAAGG [ExTryptoB.Dh]
386

* * *

system: MS2 coat protein; assay: apparent KD of MS2 coat protein; designed switch direction (-1 OFF switch, 1 ON switch): -1; higher = weaker reporter binding; conditions: input ligand: none
Observable: apparent KD of MS2 coat protein (nM)
# output: bare number, implied unit nM

These solved cases illustrate the format of a correct answer.
| Sequence Chain | Uom | apparent KD of MS2 coat protein |
| --- | --- | --- |
| UUCCUCUCUUCUUUGUCUCACAUGAGGAUCACCCAUGUAACAUAGGAUAUGCUUGGUAUUUAUAUGCAGAAGGAUGUUAGUAUU [JR_ExcNG3_Sub083] (Eterna round: R96, puzzle: Exclusion NG 3) | nM | 25.7 |
| GCCAUGUCAGGAUAUGCUUCAAAGCACGUACAGAGCUUGAAGUAGAAGGGACAUGAGGAUCACCCAUGUGCCUA [Eternabot (L1) Solution 80] (Eterna round: R97, puzzle: Exclusion 4) | nM | 20 |

Form field - read-out: apparent KD of MS2 coat protein; system: MS2 coat protein; submitted item: CCGUAGUCAGGAUAUACAUGAGGAUCACCCAUGUAAAAUUUUAAUUUAAUUUGAAGGUGUAGAAGGGACCAGCC [Ex3 #28] (Eterna round: R97, puzzle: Exclusion 3)
35.6

* * *

tested on: MS2 coat protein; assay: apparent KD of MS2 coat protein; designed switch direction (-1 OFF switch, 1 ON switch): -1; higher = weaker reporter binding; details: input ligand: FMN 200 uM
Observable: apparent KD of MS2 coat protein
Respond with the figure and its unit, in that order.

These solved cases illustrate the format of a correct answer.
| Sequence Chain | apparent KD of MS2 coat protein |
| --- | --- |
| CAUGAUUGGCGAGGAUAUUGAUCUACAUGGCGACGAGAAGGCGCCUGUCACAUGAGGAUCACCCAUGUGAGUCUGGUGAAUGAG [Ex NG1 #85] (Eterna round: R96, puzzle: Exclusion NG 1) | 0.0672 µM |
| GAAUAGAGAGGAUAUGCGAAGUAGGUAGUACGAUAUAUCUGACAUGAGGAUCACCCAUGUAGAAGGCUCAGAUC [EX2 #5] (Eterna round: R97, puzzle: Exclusion 2) | 0.0344 µM |

What does the data say about its apparent KD of MS2 coat protein? Entry: AAAUUGUGAGGAUAUUCGAUGAACUCGGAGACGAGUUUAUCGGAGAAGGCACAUGAGGAUCACCCAUGUUCCUU [Mat - Exclusion 4 - JL Mod - D23] (Eterna round: R97, puzzle: Exclusion 4)
0.102 µM

* * *

test system: MS2 coat protein; test: apparent KD of MS2 coat protein; designed switch direction (-1 OFF switch, 1 ON switch): -1; higher = weaker reporter binding; conditions: input ligand: FMN 200 uM
Observable: apparent KD of MS2 coat protein (nM)
# output: bare number, implied unit nM

These solved cases illustrate the format of a correct answer.
| Sequence Chain | System | apparent KD of MS2 coat protein (nM) |
| --- | --- | --- |
| CCCUCACAUGAGGAUCACCCAUGUCAGGAUAUUCAAAGCGCAAAUGCGCCAAAUGCAGGAAGAAGGGACGUGCC [Bisoar] (Eterna round: R96, puzzle: Exclusion 1) | MS2 coat protein | 18.6 |
| ACAUGAGGAUCACCCAUGUCCGGCUGGUCCGUCUCGGCUGUCGAGGAUAUAGCUUGGUGUCCGCGCUAGAAGGUGGGAGCCGGC [Aenatbe mod 71] (Eterna round: R96, puzzle: Exclusion NG 3) | MS2 coat protein | 166 |
| CUCGAGUCAGGAUAUGUUCCGCAUGGCAACAUGCUAUAAGAAUAGAAGGGACAUGAGGAUCACCCAUGUUAACA [Eternabot (Original) Solution 12] (Eterna round: R97, puzzle: Exclusion 4) | MS2 coat protein | 162 |

What does the data say about its apparent KD of MS2 coat protein? Entry: UCAUGUUAGCAGGAUAUGCUAUUUAUUUUUUAUGCAGAAGGGCUUACAUGAGGAUCACCCAUGUGUUAGGUUUU [JR_E6_Sub073] (Eterna round: R96, puzzle: Exclusion 6)
34.8

What does the data say about its apparent KD of MS2 coat protein? Entry: GACUAAACACGAGGAUAUGCCUGGGAAGAACAGGCAGAAGGCGUGACAUGAGGAUCACCCAUGUAGCCGGGCUAUUCUCGUGUG [Orlaes] (Eterna round: R96, puzzle: Exclusion NG 1)
35.4

* * *

# Lookup of reported apparent KD of K4 kissing-loop reporter keyed by entry
test system: K4 kissing-loop RNA reporter; experiment: apparent KD of K4 kissing-loop reporter; higher = weaker reporter binding; details: Eterna round: R107; input ligand: tryptophan 2.4 mM;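 also: bound reporter read as fluorescence of individual clusters on recovered sequencing chips by microscopy, with normalized cluster intensities fitted with a binding model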
# output: bare number, implied unit nM

| Sequence Chain | apparent KD of K4 kissing-loop reporter [nM] |
| --- | --- |
| AAUGUACAGGGAAGGAGCGUAGUCCAGUGAUGUUGGAGUUAAAUACCAGUGAUGUUGGUUAUACAGGUAGGUCGCCCUAAAGUGC [Exclusion Arginine B Gf 4] | 76 |

What does the data say about its apparent KD of K4 kissing-loop reporter? Entry: UACAUAUUAUUUAACAUAAAUUUUACAGAAGGAGCGUGAUCAUUCACAGGUAGGUCGCUGAACUAGUGAUGUUAGUUUUAUUUUU [JR_Nu_ExcArginiA_Sub025]
57.3

What does the data say about its apparent KD of K4 kissing-loop reporter? Entry: GGCAUGGUGACGCGGCGGCCAUGCACUUGGGAGGAUAUGUUUCGUGACAGAAGGCCCAGUGAUGUUGGGUCUGUUCAAAAGGACU [Riteveat]
141

* * *

test system: MS2 coat protein; assay: apparent KD of MS2 coat protein; designed switch direction (-1 OFF switch, 1 ON switch): -1; higher = weaker reporter binding; settings: Eterna round: R95; input ligand: microRNA oligo, concentration not stated
# Lookup of reported apparent KD of MS2 coat protein keyed by entry

These solved cases illustrate the format of a correct answer.
| Sequence Chain | System | Meas Value |
| --- | --- | --- |
| AGUAACCGUCACGAAAGUGAUGGUUACGCAAGUAAAUGUACAUGAGGAUCACCCAUGUCCUCAAUUGCUCGUCUUAU [Sensor 3 - 52] (puzzle: Sensor v3, turn-off variant 2) | MS2 coat protein | 167 nM |
| AAAUACAAGUAAAGAUCCUACAUGAGGAUCACCCAUGUGCUCGUUUUAUAAAGUACUAUCACGAAAGUGAUAGUACA [Sensor 3, v1 - 23] (puzzle: Sensor v3, turn-off variant 1) | MS2 coat protein | 4.81 nM |
| GAAAAGGUAGGAUAUACGAAAAAAAAGGGUAGAAAUAAAACACAUGAGGAUCACCCAUGUAGAAGGACCAAAAG [salish99_ex2_r3_076] (puzzle: Exclusion 2) | MS2 coat protein | 20.9 nM |
| CCGGAAAUAGAGGAUAUAGGACUCGAUAGAGUCCUAGAAGGCUAUACAUGAGGAUCACCCAUGUGUCCUACCGG [Fiskers Ex 6 - 64] (puzzle: Exclusion 6) | MS2 coat protein | 13.6 nM |
| AUGAAAGUAGGAUAUCGACUGAUUGACAUGAGGAUCACCCAUGUGGUUCUGUGCGGUGUUCGAGAAGGGCUAAGAU [Mageer] (puzzle: Exclusion 5) | MS2 coat protein | 15.7 nM |

What does the data say about its apparent KD of MS2 coat protein? Entry: GACGAGGGAGGAUAUGCACGAGGGAUAUCUGACAUGCCUAUACAUGAGGAUCACCCAUGUAGAAGGCCCAGAUA [Veorleerma] (puzzle: Exclusion 2)
11.9 nM

What does the data say about its apparent KD of MS2 coat protein? Entry: UCAUGUUUAGAGGAUAUGAUUACUUUAGAGUAAUCAGAAGGCUAGACAUGAGGAUCACCCAUGUCAUAACAUGA [Exclusion 6 - B - 15:a] (puzzle: Exclusion 6)
62 nM

What does the data say about its apparent KD of MS2 coat protein? Entry: GAUUAUGCGAGCUUUAGGGACAUGAGGAUCACCCAUGUUCGUCUUAUUGGUCUGGAUACACUGACAUACCUAAAUCU [JMF 60] (puzzle: Sensor v3, turn-off variant 1)
22.6 nM

What does the data say about its apparent KD of MS2 coat protein? Entry: AAGAGCGUAGGAUAUACAUGAGGAUCACCCAUGUGAGGAGGGAAAAGGAGGUGUGGAAGUAGAAGGACGGAGUG [JR_Exclu3_Sub080] (puzzle: Exclusion 3)
30.9 nM

What does the data say about its apparent KD of MS2 coat protein? Entry: CUUUUGUGAGGAUAUCAGUAGUAAAAGAAUAAAAUUACUACUGAGAAGGCACAUGAGGAUCACCCAUGUUCCUC [Mat - Exclusion 4 - Mod of Salish - D61] (puzzle: Exclusion 4)
36.7 nM

What does the data say about its apparent KD of MS2 coat protein? Entry: AAGAAACAUGAGGAUCACCCAUGUGAGGAUAUGAGGAAGAAAAGAAAAGAAAGAAGAAUCAGAAGGCACAAAGG [salish99-ex1_r3_049] (puzzle: Exclusion 1)
36.5 nM
